test system: E. coli BW25113 robp lux reporter; experiment: promoter activity interaction Z-score (Lux/OD deviation from empty-vector control); higher = stronger promoter induction by the compound; conditions: 1 µg/ml; genetic background: Δrob
Output Yes for promoter activity interaction Z-score not less than 0.06; output No otherwise.

{"columns": ["compound", "category label"],
 "data": [
  ["CO[C@H]1/C=C/O[C@@]2(C)Oc3c(C)c(O)c4c(O)c(c(/C=N/N5CCN(C)CC5)c(O)c4c3C2=O)NC(=O)/C(C)=C\\C=C\\[C@H](C)[C@H](O)[C@@H](C)[C@@H](O)[C@@H](C)[C@H](OC(C)=O)[C@@H]1C", "No"],
  ["C/C(=C\\C(=O)OCCCCCCCCC(=O)O)C[C@@H]1OC[C@H](C[C@@H]2O[C@H]2[C@@H](C)[C@H](C)O)[C@@H](O)[C@H]1O", "Yes"],
  ["CCC[C@@H]1C[C@@H](C(=O)N[C@@H]([C@H]2O[C@H](SC)[C@H](O)[C@@H](O)[C@H]2O)[C@H](C)Cl)N(C)C1", "No"],
  ["NC1CONC1=O (stereo not given)", "Yes"],
  ["CC1(C)S[C@@H]2[C@H](NC(=O)[C@H](N)c3ccc(O)cc3)C(=O)N2[C@H]1C(=O)O", "Yes"]
]}
